The measured values listed here are drawn from paper PMC10999543.

system: HeLa cells; experiment: Compound screen by flow cytometry: HeLa cell count as surrogate readout of cell viability (z-scoreHeLa); format: cell-based, human; settings: PKIS compounds raw data; replicate 3; HeLa cell count; further: test concentration or dose not given here
Quantity name: cell count rep 3
Answers are plain numbers.

CN1C(=O)C(Nc2ccccc2)=C(c2ccccc2)C1=O    6914
Nc1ncc(-c2cccc(S(N)(=O)=O)c2)c2scc(-c3ccc(F)c(Cl)c3)c12 [GW856804X]    7870
N#Cc1ccc(CCNc2nccc(-c3cccc(CN4CCNCC4)c3)n2)cc1 [GSK2137462A]    5956
CC(C)c1ccc2c(c1)NC(=O)C2=NNc1ccc(S(N)(=O)=O)cc1 [GW300653X]    5783

# context switch: different compound, same cell count rep 3
Any idea what cell count rep 3 was measured for O=C(c1ccc(-c2cc(-c3c[nH]nc3-c3ccccn3)ccn2)cc1)N1CCOCC1 [GW812171X] ? 6822

---

tested on: HeLa cells; experiment: Compound screen by flow cytometry: HeLa cell count as surrogate readout of cell viability (z-scoreHeLa); type: cell-based, human; settings: PKIS compound screen, mean of 3 replicates; further: test concentration or dose not given here
Could you label it true (1) if measured z-scoreHeLa mean is 0.6 or higher, and false (0) otherwise?

Known results for compounds:
c1ccc(Oc2ccc(Nc3ccnc4cc(-c5ccc(CNCCN6CCOCC6)o5)ccc34)cc2)nc1 [GW567145X]    false (0)
COc1ccc(Nc2nccc(N3CCC(NC(=O)Nc4cccc(C(C)=O)c4)C3)n2)cc1 (centres unmarked) [GSK1379731A]    true (1)
N#Cc1ccc(CCNc2nccc(-c3cccc(CN4CCNCC4)c3)n2)cc1 [GSK2137462A]    false (0)
Cc1ccc(NC(=O)Nc2ccccc2)cc1-c1ccc(C(=O)Nc2ccncc2)cc1 [GSK1398471A]    false (0)

I'd appreciate it if you could say whether NS(=O)(=O)c1ccc(N/C=C2\C(=O)Nc3ccc4ncsc4c32)cc1 [GW297361X] has z-scoreHeLa mean at least equal to 0.6. false (0)

Now try CNC(=O)c1cc(-c2ccc(F)cc2)cc(-c2ccc(S(=O)(=O)N3CCCC3)cc2)c1N [GSK635416A] . false (0)

Now try NS(=O)(=O)c1ccc(N/N=C2\C(=O)Nc3ccc(Cl)cc32)cc1 [GW280670X] . false (0)

Now try O=C(Nc1ccccc1F)NC1CCN(c2ccnc(Nc3ccc(F)cc3)n2)C1 (centres unmarked) [GSK1379722A] . true (1)

Now try CC(C)c1nc(-c2cccc(NS(=O)(=O)c3c(F)cccc3F)c2F)c(-c2ccnc(Nc3ccc(N4CCOCC4)nc3)n2)s1 [GSK2008607A] . false (0)

Now try c1ccc(-c2cc3ccncc3cc2OC2CCNCC2)cc1 [GSK1122999D] . true (1)

Now try O=C(c1ccc(-c2cc(-c3c[nH]nc3-c3ccccn3)ccn2)cc1)N1CCOCC1 [GW812171X] . true (1)

Now try Nc1ncc(-c2cccnc2)c2scc(-c3ccc4c(c3)CCN4C(=O)Cc3ccccc3)c12 [GSK683281A] . false (0)

Now try COc1cc(Nc2ncc3c(C)nc(-c4cc5ccccc5[nH]4)n3n2)cc(OC)c1OC [GW869516X] . true (1)

---

Could you please report measured cell count rep 2 for the items listed next?
test system: HeLa cells; test: Compound screen by flow cytometry: HeLa cell count as surrogate readout of cell viability (z-scoreHeLa); format: cell-based, human; settings: PKIS compound screen raw data, HeLa cell count, replicate 2; further: test concentration or dose not given here
Give bare numbers.

Could you tell me cell count rep 2 for each of these compounds? They are listed below.
1. CS(=O)(=O)CCNCc1ccc(-c2ccc3ncnc(Nc4ccc(OCc5ccccc5)c(Cl)c4)c3c2)o1 [GW574783B]
2. COc1ccc(S(=O)(=O)NC2CCN(c3cc(C)nc(Nc4cccc(C#N)c4)n3)CC2)cc1 [GSK1653539A]
3. CCn1c(-c2nonc2N)nc2c(C#CC(C)(C)O)nc(OC[C@H](N)c3ccccc3)cc21 [GSK943949A]
4. CS(=O)(=O)CCNCc1nc(-c2ccc3ncnc(Nc4ccc(F)c(Cl)c4)c3c2)cs1 [GW461104A]
5. O=C(Nc1ccccc1F)NC1CCN(c2ccnc(Nc3ccc(F)cc3)n2)C1 (stereo not shown) [GSK1379722A]
6. Cc1c(O)cccc1Nc1ccnc2ccc(C(F)(F)F)cc12 [GW466413A]
7. CC(C)S(=O)(=O)N1CCN(Cc2ccc3c(c2)nc(NC(=O)c2ccsc2)n3C[C@H](O)c2ccccc2)CC1 [GW635815X]

1: 35533; 2: 21326; 3: 847; 4: 957; 5: 39130; 6: 2982; 7: 26865

Could you tell me cell count rep 2 for each of these compounds? They are listed below.
1. COc1ccc(Nc2nccc(NCCNC(=O)Nc3ccccc3F)n2)cc1 [GSK1379901A]
2. Cn1cncc1-c1cc2c(Nc3ccc(OCc4ccccc4)cc3)ncnc2cn1 [GW281179X]
3. NCCCC(NC(=O)c1cc(Br)c(-c2ccnc3[nH]ccc23)s1)c1ccccc1 (stereo not shown) [GSK1287544A]
4. COc1ccc(COc2ccc(Cc3cnc(N)nc3N)cc2OC)cc1 [GW632580X]
5. CCS(=O)(=O)c1ccc(OC)c(Nc2nccc(N(C)c3ccc4c(C)n[nH]c4c3)n2)c1 [GW654652C]
6. CNc1nc(-c2ccc3c(N)n[nH]c3c2)cc(N2C[C@@H](C(=O)NC3CCCCC3)OC[C@H]2C)n1 [GSK2375584A]
7. CC(C)c1nc(-c2cccc(NS(=O)(=O)c3c(F)cccc3F)c2)c(-c2ccnc(Nc3ccc(N4CCOCC4)nc3)n2)s1 [GSK1723980B]
8. Cc1c2ccc(N(C)c3ccnc(Nc4cccc(S(N)(=O)=O)c4)n3)cc2nn1Cc1ccccc1 [GW787226A]

[3999, 11001, 6004, 34970, 25320, 29074, 1981, 1496]

Any idea what cell count rep 2 was measured for `CN(C)CCOc1ccc(-c2cc(-c3ccc(Cl)c(O)c3)c(-c3ccncc3)[nH]2)cc1.Cl.Cl` ? 6368
